Recorded pIC50 by entry
SYSTEM: MAGL (Homo sapiens (Human), UniProt Q99685)
Sequence (Q99685 whole entry, species assumed): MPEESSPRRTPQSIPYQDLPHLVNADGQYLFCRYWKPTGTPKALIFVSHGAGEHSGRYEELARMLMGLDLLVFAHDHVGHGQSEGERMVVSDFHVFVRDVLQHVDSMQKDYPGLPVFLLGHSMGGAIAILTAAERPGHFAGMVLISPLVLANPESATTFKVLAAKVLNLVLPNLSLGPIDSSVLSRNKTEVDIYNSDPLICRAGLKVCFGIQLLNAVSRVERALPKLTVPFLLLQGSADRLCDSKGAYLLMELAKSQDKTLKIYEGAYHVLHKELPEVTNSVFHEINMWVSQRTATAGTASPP
Scale note: pIC50 = -log10(concentration in M).

// solved cases for pIC50 follow
[
  {
    "TEST_SMILES": "O=C1CO[C@H]2CCN(C(=O)N3CC(OCc4cc(C(F)(F)F)c(C(F)(F)F)cn4)C3)C[C@H]2N1",
    "pIC50": 8.70
  },
  {
    "TEST_SMILES": "O=C1CO[C@H]2CCN(C(=O)N3CC(Oc4ccc(Cl)c(Br)c4)C3)C[C@H]2N1",
    "pIC50": 7.08
  },
  {
    "TEST_SMILES": "O=C1CO[C@H]2CCN(C(=O)N3CC(OCc4nc(-c5ccc(F)cc5)cs4)C3)C[C@H]2N1",
    "pIC50": 7.52
  },
  {
    "TEST_SMILES": "Cc1cccc(COC2CN(C(=O)N3CC[C@@H]4OCC(=O)N[C@@H]4C3)C2)c1C",
    "pIC50": 7.36
  },
  {
    "TEST_SMILES": "Cc1cc(OC(F)(F)F)ccc1COC1CN(C(=O)N2CC[C@@H]3OCC(=O)N[C@@H]3C2)C1",
    "pIC50": 8.30
  },
  {
    "TEST_SMILES": "O=C1CO[C@H]2CCN(C(=O)N3CC(Oc4ccc(Cl)c(C5CC5)c4)C3)C[C@H]2N1",
    "pIC50": 7.96
  }
]

Item O=C1CO[C@H]2CCN(C(=O)N3CC(Oc4cc(Cl)cc(N5CC6(CCC6)C5)c4)C3)C[C@H]2N1 was tested on MAGL (Homo sapiens (Human), UniProt Q99685); the reported pIC50 is 6.34
